Data provenance is ChEMBL document CHEMBL1938346.

Kindly state pKi for each of the entries shown.
# target: Neuronal acetylcholine receptor; alpha4/beta2 (Rattus norvegicus, UniProt P09483+P12390)
# Sequence (P09483 whole entry): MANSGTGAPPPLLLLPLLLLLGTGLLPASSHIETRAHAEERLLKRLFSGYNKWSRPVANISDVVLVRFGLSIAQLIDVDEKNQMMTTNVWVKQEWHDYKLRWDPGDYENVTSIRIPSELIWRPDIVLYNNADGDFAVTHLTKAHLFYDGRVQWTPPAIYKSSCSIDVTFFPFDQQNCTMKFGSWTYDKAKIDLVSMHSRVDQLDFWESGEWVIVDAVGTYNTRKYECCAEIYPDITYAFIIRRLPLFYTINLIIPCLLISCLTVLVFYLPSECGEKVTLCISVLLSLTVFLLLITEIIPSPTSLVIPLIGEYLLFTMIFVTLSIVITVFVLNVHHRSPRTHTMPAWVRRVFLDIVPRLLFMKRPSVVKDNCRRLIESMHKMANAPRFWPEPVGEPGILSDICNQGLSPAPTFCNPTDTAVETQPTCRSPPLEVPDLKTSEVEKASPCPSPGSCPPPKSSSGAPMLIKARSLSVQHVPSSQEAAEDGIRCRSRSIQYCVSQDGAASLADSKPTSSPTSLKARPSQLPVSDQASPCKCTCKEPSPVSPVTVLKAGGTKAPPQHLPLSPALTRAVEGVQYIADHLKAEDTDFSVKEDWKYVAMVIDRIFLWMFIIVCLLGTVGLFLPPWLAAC
# Sequence (P12390 whole entry): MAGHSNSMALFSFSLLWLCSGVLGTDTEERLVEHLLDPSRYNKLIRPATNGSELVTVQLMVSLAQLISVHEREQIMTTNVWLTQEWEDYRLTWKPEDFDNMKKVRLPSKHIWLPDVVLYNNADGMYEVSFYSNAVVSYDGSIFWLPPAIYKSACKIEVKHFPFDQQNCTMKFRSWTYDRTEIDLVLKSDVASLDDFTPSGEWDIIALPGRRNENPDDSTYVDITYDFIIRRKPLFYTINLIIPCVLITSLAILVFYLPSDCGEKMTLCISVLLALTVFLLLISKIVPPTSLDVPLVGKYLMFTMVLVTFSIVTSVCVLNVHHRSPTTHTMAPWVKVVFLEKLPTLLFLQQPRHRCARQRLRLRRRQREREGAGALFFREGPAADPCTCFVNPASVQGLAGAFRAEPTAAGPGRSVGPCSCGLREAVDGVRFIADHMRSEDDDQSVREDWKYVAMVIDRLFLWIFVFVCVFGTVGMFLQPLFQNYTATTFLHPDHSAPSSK
# experimental details: Displacement of [3H]cytisine from nAChR alpha4beta2 in rat brain membrane
# Type: cell membranes
# applied conditions: read-out: Ki
pKi (log units): -log10 of the concentration in mol/L.

Query string: Answer with the recorded pKi of CC(NC(=O)c1cncc(N2C[C@H]3CNC[C@H]3C2)n1)c1ccccc1 (stereo not given in full) only.
Result string: 6.88

Query string: Look up and report measured pKi for this entry: O=C(NCc1ccccc1C(F)(F)F)c1cncc(N2C[C@H]3CNC[C@H]3C2)c1
Result string: 9.05

Query string: For the compound C[C@@H](NC(=O)c1cncc(N2C[C@H]3CNC[C@H]3C2)c1)c1ccccc1 , give its reported pKi.
Result string: 8.66

Query string: Hello, please tell me recorded pKi for this one: CN(Cc1ccccc1)C(=O)c1cncc(N2C[C@H]3CNC[C@H]3C2)n1
Result string: 6.76

Query string: Specify measured pKi for O=C(Nc1cc(F)cc(F)c1)c1cncc(N2C[C@H]3CNC[C@H]3C2)c1 .
Result string: 10.40

Query string: Give the reported value of pKi for this record: c1cnc(N2C[C@H]3CNC[C@H]3C2)cn1
Result string: 8.11

Query string: Return reported pKi. Input compound: O=C(Nc1ccc(Cl)cc1)c1cncc(N2C[C@H]3CNC[C@H]3C2)c1
Result string: 9.70

Query string: Provide one value: measured pKi of c1cncc(N2C[C@@H]3CCN[C@@H]3C2)c1
Result string: 8.54

Query string: Name the recorded pKi of the item O=C(NCc1ccc(Cl)c(Cl)c1)c1cncc(N2C[C@H]3CNC[C@H]3C2)n1 in your answer.
Result string: 8.60

Query string: Recall and state the measured pKi for Cc1ccccc1CNC(=O)c1cncc(N2CC[C@H]3CNC[C@H]32)c1 .
Result string: 6.06

====

# experimental details: Drug uptake in rat brain at 2 umol/kg, ip measured after 0.75 hrs
# Assay type: ADME, organism-based
# applied conditions: read-out: Drug uptake
Provide the reported concentration at 0.75 h of each item.
API: value field is a number in ng/mL; no unit string.

Query string: Give the reported value of concentration at 0.75 h for this record: O=C(NCc1ccccc1)c1cncc(N2C[C@H]3CNC[C@H]3C2)n1
Result string: 3

Query string: Recall and state the measured concentration at 0.75 h for Cc1ccccc1CNC(=O)c1cncc(N2C[C@H]3CNC[C@H]3C2)n1 .
Result string: 8

Query string: Retrieve concentration at 0.75 h measured for Cc1ccccc1CNC(=O)c1cncc(N2C[C@H]3CNC[C@H]3C2)c1 and print it.
Result string: 3.3

Query string: Tell me its concentration at 0.75 h given CN(Cc1ccccc1)C(=O)c1cncc(N2C[C@H]3CNC[C@H]3C2)c1 as the entry.
Result string: 6

Query string: Return value of concentration at 0.75 h for input C[C@@H](NC(=O)c1cncc(N2C[C@H]3CNC[C@H]3C2)c1)c1ccccc1 , no commentary.
Result string: 20.6

====

# experimental details: Drug uptake in rat brain at 2 umol/kg, ip measured after 0.75 hrs
# Assay type: ADME, organism-based
# applied conditions: read-out: Drug uptake
measured attribute: concentration at 0.75 h (ng/mL)
Answer in ng/mL, number only, no unit symbol.

Query string: Consider the compound c1ccc(COc2cncc(N3C[C@H]4CNC[C@H]4C3)n2)cc1 and give its recorded concentration at 0.75 h.
Result string: 76.8

Query string: State its concentration at 0.75 h for this compound: O=C(NCc1ccccc1C(F)(F)F)c1cncc(N2C[C@H]3CNC[C@H]3C2)c1
Result string: 6.9

Query string: Tell me its concentration at 0.75 h given COc1cc(NC(=O)c2cncc(N3C[C@H]4CNC[C@H]4C3)c2)cc(OC)c1 as the entry.
Result string: 5.5

Query string: Please list concentration at 0.75 h recorded for the compound Cc1cccc(NC(=O)c2cncc(N3C[C@H]4CNC[C@H]4C3)c2)c1
Result string: 6.4
